# target.or.system: human V1a receptor (Homo sapiens)
# assay: Cellular in vitro assay for determining vasopressin receptor activity, V1a receptor cell line (photoprotein luminescence)
# condition.summary: CHO cell line transfected with human V1a receptor; [Arg8]-vasopressin at EC50; compounds of the invention (Table 1A); read-out: IC50 hV1a
Assign pIC50 to each entry below.
Would you please state pIC50, meaning minus log10 of the concentration in mol/L, as a bare number?

Problem: Requested field: pIC50. Item: COc1ccccc1-n1nc(Cn2nc(-c3ccc(Cl)cc3)n(C[C@H](O)C(F)(F)F)c2=O)nc1CO [Example 3]
Result: 9.00

Problem: Requested field: pIC50. Item: CC(O)c1nc(Cn2nc(-c3ccc(Cl)cc3)n(C[C@H](O)C(F)(F)F)c2=O)nn1-c1ccccc1F (single isomer, unassigned) [Example 41]
Result: 8.74

Problem: Requested field: pIC50. Item: CC(O)c1nc(Cn2nc(-c3ccc(Cl)cc3)n(C[C@H](O)C(F)(F)F)c2=O)nn1-c1cccc(F)c1Cl (single isomer, unassigned) [Example 67]
Result: 8.68

* * *

# target.or.system: human V2 receptor (Homo sapiens, UniProt P30518)
# Construct: expressed in transfected cells; host or cells: CHO K1 (ATCC) expressing firefly luciferase under a CRE-responsive promoter
# Sequence (P30518 whole entry): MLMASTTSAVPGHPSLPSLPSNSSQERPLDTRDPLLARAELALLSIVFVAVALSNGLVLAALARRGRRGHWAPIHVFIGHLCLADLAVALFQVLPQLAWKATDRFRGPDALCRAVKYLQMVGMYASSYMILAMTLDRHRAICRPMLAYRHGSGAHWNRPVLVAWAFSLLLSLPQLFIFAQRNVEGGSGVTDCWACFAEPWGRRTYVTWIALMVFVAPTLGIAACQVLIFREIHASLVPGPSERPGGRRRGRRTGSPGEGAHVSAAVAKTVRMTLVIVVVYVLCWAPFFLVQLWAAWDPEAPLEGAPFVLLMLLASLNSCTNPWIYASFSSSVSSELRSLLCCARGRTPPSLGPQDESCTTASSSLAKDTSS
# assay: Cellular in vitro assay for determining vasopressin receptor activity, V2 receptor cell line (CRE-luciferase)
# Type: cell-based
# condition.summary: CHO cell line transfected with human V2 receptor; [Arg8]-vasopressin at EC50; compounds of the invention (Table 1A); read-out: IC50 hV2
IC50 vs 2 nM: less than gives met; not less than gives not met.

Problem: Bench note: check whether Cc1cccc(-n2nc(Cn3nc(-c4ccc(Cl)cc4)n(C[C@H](O)C(F)(F)F)c3=O)nc2C(C)O)c1 (single isomer, unassigned) [Example 29] shows IC50 below 2 nM
Result: met

Problem: Bench note: check whether CC(O)c1nc(Cn2nc(-c3ccc(Cl)cc3)n(C[C@H](O)C(F)(F)F)c2=O)nn1-c1cccc(Cl)c1F (mixture of isomers) [Example 52] shows IC50 below 2 nM
Result: met

Problem: Bench note: check whether CC(O)c1nc(Cn2nc(-c3ccc(Cl)cc3)n(C[C@H](O)C(F)(F)F)c2=O)nn1-c1cccc(OC(F)F)c1 (mixture of isomers) [Example 55] shows IC50 below 2 nM
Result: not met

Problem: Bench note: check whether CC(O)c1nc(Cn2nc(-c3ccc(Cl)cc3)n(C[C@H](O)C(F)(F)F)c2=O)nn1-c1cccc(C(F)F)c1 (single isomer, unassigned) [Example 20] shows IC50 below 2 nM
Result: met

Problem: Bench note: check whether CC(O)c1nc(Cn2nc(-c3ccc(Cl)cc3)n(C[C@H](O)C(F)(F)F)c2=O)nn1-c1cc(Cl)cc(Cl)c1 (single isomer, unassigned) [Example 47] shows IC50 below 2 nM
Result: not met

Problem: Bench note: check whether O=c1n(Cc2nc(CO)n(-c3cccc(Cl)c3)n2)nc(-c2ccc(Cl)cc2)n1C[C@H](O)C(F)(F)F [Example 1] shows IC50 below 2 nM
Result: not met

Problem: Bench note: check whether C[C@H](O)c1nc(Cn2nc(-c3ccc(Cl)cc3)n(C[C@H](O)C(F)(F)F)c2=O)nn1-c1cccc(F)c1 [Example 76] shows IC50 below 2 nM
Result: not met

Problem: Bench note: check whether O=c1n(Cc2nc(CO)n(-c3cc(F)ccc3Cl)n2)nc(-c2ccc(Cl)cc2)n1C[C@H](O)C(F)(F)F [Example 9] shows IC50 below 2 nM
Result: not met

Problem: Bench note: check whether CC(O)c1nc(Cn2nc(-c3ccc(Cl)cc3)n(C[C@H](O)C(F)(F)F)c2=O)nn1-c1cccc(F)c1F (single isomer, unassigned) [Example 66] shows IC50 below 2 nM
Result: met

Problem: Bench note: check whether Cc1cccc(-n2nc(Cn3nc(-c4ccc(Cl)cc4)n(C[C@H](O)C(F)(F)F)c3=O)nc2C(C)O)c1 (single isomer, unassigned) [Example 30] shows IC50 below 2 nM
Result: met

* * *

# target.or.system: human V1a receptor (Homo sapiens, UniProt P37288)
# Sequence (P37288 whole entry): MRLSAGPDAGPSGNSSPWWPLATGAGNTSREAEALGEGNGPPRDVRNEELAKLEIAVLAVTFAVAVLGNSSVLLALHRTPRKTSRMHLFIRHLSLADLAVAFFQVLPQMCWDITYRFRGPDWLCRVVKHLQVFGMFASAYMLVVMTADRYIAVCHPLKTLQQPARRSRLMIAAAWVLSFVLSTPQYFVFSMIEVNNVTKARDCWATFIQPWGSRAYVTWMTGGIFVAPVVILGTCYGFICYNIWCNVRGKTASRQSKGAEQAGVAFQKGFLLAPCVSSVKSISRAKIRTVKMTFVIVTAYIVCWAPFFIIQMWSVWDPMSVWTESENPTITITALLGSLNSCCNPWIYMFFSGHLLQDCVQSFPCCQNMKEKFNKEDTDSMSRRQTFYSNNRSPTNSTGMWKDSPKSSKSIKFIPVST
# assay: Cellular in vitro assay for determining vasopressin receptor activity, V1a receptor cell line (photoprotein luminescence)
# condition.summary: CHO cell line transfected with human V1a receptor; [Arg8]-vasopressin at EC50; compounds of the invention (Table 1A); read-out: IC50 hV1a
# Protocol: The identification of agonists and antagonists of the V1a and V2 vasopressin receptors from humans, rats and dogs as well as the quantification of the activity of the compounds of the invention is carried out using recombinant cell lines. […] The resulting vasopressin receptor cells react to stimulation of the recombinantly expressed V1a receptors by intracellular release of calcium ions, which can be quantified by the resulting photoprotein luminescence. […]
Assign pIC50 to each entry below.
Would you please state pIC50, meaning minus log10 of the concentration in mol/L, as a bare number?

Problem: Requested field: pIC50. Item: CC(O)c1nc(Cn2nc(-c3ccc(Cl)cc3)n(C[C@H](O)C(F)(F)F)c2=O)nn1-c1cc(Cl)ccc1Cl (single isomer, unassigned) [Example 51]
Result: 8.52

Problem: Requested field: pIC50. Item: CC(O)c1nc(Cn2nc(-c3ccc(Cl)cc3)n(C[C@H](O)C(F)(F)F)c2=O)nn1-c1cccc(C(F)(F)F)c1 (single isomer, unassigned) [Example 24]
Result: 6.92

Problem: Requested field: pIC50. Item: CC(O)c1nc(Cn2nc(-c3ccc(Cl)cc3)n(C[C@H](O)C(F)(F)F)c2=O)nn1-c1ccc(F)cc1Cl (single isomer, unassigned) [Example 36]
Result: 9.10

Problem: Requested field: pIC50. Item: CC(O)c1nc(Cn2nc(-c3ccc(Cl)cc3)n(C[C@H](O)C(F)(F)F)c2=O)nn1-c1ccc(F)c(Cl)c1 (mixture of isomers) [Example 43]
Result: 8.21

Problem: Requested field: pIC50. Item: CC(O)c1nc(Cn2nc(-c3ccc(Cl)cc3)n(C[C@H](O)C(F)(F)F)c2=O)nn1-c1ccccc1 (single isomer, unassigned) [Example 17]
Result: 8.57

Problem: Requested field: pIC50. Item: CCc1ccccc1-n1nc(Cn2nc(-c3ccc(Cl)cc3)n(C[C@H](O)C(F)(F)F)c2=O)nc1C(C)O (mixture of isomers) [Example 31]
Result: 8.80

Problem: Requested field: pIC50. Item: CC(O)c1nc(Cn2nc(-c3ccc(Cl)cc3)n(C[C@H](O)C(F)(F)F)c2=O)nn1-c1ccc(F)cc1Cl (single isomer, unassigned) [Example 35]
Result: 9.30

Problem: Requested field: pIC50. Item: CCc1ccccc1-n1nc(Cn2nc(-c3ccc(Cl)cc3)n(C[C@H](O)C(F)(F)F)c2=O)nc1C(C)O (single isomer, unassigned) [Example 33]
Result: 8.80

Problem: Requested field: pIC50. Item: CC(O)c1nc(Cn2nc(-c3ccc(Cl)cc3)n(C[C@H](O)C(F)(F)F)c2=O)nn1-c1cc(F)ccc1Cl (mixture of isomers)
Result: 9.70

Problem: Requested field: pIC50. Item: CC(O)c1nc(Cn2nc(-c3ccc(Cl)cc3)n(C[C@H](O)C(F)(F)F)c2=O)nn1-c1cccc(OC(F)F)c1 (mixture of isomers) [Example 55]
Result: 7.83

* * *

# target.or.system: human V2 receptor (Homo sapiens, UniProt P30518)
# assay: Cellular in vitro assay for determining vasopressin receptor activity, V2 receptor cell line (CRE-luciferase)
# condition.summary: CHO cell line transfected with human V2 receptor; [Arg8]-vasopressin at EC50; compounds of the invention (Table 1A); read-out: IC50 hV2
assay.metric: pIC50
Would you please state pIC50, meaning minus log10 of the concentration in mol/L, as a bare number?

Problem: Requested field: pIC50. Item: C[C@@H](O)c1nc(Cn2nc(-c3ccc(Cl)cc3)n(C[C@H](O)C(F)(F)F)c2=O)nn1-c1ccccc1Cl [Example 83]
Result: 8.17

Problem: Requested field: pIC50. Item: CC(O)c1nc(Cn2nc(-c3ccc(Cl)cc3)n(C[C@H](O)C(F)(F)F)c2=O)nn1-c1cc(F)cc(Cl)c1 (single isomer, unassigned) [Example 15]
Result: 8.39

Problem: Requested field: pIC50. Item: O=c1n(Cc2nc(CO)n(-c3cc(F)cc(Cl)c3)n2)nc(-c2ccc(Cl)cc2)n1C[C@H](O)C(F)(F)F [Example 6]
Result: 8.77

Problem: Requested field: pIC50. Item: CC(O)c1nc(Cn2nc(-c3ccc(Cl)cc3)n(C[C@H](O)C(F)(F)F)c2=O)nn1-c1ccc(F)cc1Cl (single isomer, unassigned) [Example 36]
Result: 8.55

Problem: Requested field: pIC50. Item: CC(O)c1nc(Cn2nc(-c3ccc(Cl)cc3)n(C[C@H](O)C(F)(F)F)c2=O)nn1-c1cccc(Cl)c1Cl (single isomer, unassigned) [Example 62]
Result: 9.05

Problem: Requested field: pIC50. Item: CC(O)c1nc(Cn2nc(-c3ccc(Cl)cc3)n(C[C@H](O)C(F)(F)F)c2=O)nn1-c1cccc(F)c1 (mixture of isomers) [Example 75]
Result: 8.18
